Target: UniProtKB P07550
Sequence (P07550 whole entry): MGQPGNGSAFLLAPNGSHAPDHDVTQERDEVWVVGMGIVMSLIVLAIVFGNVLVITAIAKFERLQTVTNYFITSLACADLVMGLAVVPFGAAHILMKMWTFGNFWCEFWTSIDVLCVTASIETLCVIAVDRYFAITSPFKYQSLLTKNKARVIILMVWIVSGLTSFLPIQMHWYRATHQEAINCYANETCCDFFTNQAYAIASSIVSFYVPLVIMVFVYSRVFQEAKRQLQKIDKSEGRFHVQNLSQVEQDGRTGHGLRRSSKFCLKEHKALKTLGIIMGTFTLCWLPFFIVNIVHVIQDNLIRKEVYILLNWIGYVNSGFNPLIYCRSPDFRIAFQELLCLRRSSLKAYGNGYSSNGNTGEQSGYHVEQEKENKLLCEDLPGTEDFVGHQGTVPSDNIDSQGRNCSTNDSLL
Assay: Displacement of radiolabeled iodocyanopindolol from recombinant beta2 adrenoceptor
pIC50: −log10 of the molar value.
OBSERVATION_TYPE: pIC50

# count of solved cases: 2
INSERT INTO assay_data (smiles_record, system, numeric_value) VALUES
  ('O=c1[nH]c2c(O)ccc([C@@H](O)CNCCc3cccc(CNCCCc4ccccn4)c3)c2s1', 'UniProtKB P07550', 9.30),
  ('Cc1cccc2c(CCNCc3cccc(CCNC[C@H](O)c4ccc(O)c5[nH]c(=O)sc45)c3)c[nH]c12', 'UniProtKB P07550', 9.20);

a = O=c1[nH]c2c(O)ccc(CCNCCc3cccc(CNCCc4c(Cl)cccc4Cl)c3)c2s1
b = O=c1[nH]c2c(O)ccc(CCNCCc3ccc(CNCCc4c(Cl)cccc4Cl)cc3)c2s1
c = O=c1[nH]c2c(O)ccc([C@@H](O)CNCCCc3cccc(CNCCc4c(Cl)cccc4Cl)c3)c2s1
Input line: Please produce an ascending ranking of these compounds based on pIC50. Lab note: record answer as labels in requested order.
Output line: b, c, a
(b: 6.30, c: 8.20, a: 9.20)

Reference source: ChEMBL document CHEMBL1944599
